Parameter IC50: see the listing below.
MEASUREMENT_TARGET: Bcr/Abl fusion protein (Homo sapiens, UniProt P00519)
Sequence (P00519 whole entry, the tested form may be a part): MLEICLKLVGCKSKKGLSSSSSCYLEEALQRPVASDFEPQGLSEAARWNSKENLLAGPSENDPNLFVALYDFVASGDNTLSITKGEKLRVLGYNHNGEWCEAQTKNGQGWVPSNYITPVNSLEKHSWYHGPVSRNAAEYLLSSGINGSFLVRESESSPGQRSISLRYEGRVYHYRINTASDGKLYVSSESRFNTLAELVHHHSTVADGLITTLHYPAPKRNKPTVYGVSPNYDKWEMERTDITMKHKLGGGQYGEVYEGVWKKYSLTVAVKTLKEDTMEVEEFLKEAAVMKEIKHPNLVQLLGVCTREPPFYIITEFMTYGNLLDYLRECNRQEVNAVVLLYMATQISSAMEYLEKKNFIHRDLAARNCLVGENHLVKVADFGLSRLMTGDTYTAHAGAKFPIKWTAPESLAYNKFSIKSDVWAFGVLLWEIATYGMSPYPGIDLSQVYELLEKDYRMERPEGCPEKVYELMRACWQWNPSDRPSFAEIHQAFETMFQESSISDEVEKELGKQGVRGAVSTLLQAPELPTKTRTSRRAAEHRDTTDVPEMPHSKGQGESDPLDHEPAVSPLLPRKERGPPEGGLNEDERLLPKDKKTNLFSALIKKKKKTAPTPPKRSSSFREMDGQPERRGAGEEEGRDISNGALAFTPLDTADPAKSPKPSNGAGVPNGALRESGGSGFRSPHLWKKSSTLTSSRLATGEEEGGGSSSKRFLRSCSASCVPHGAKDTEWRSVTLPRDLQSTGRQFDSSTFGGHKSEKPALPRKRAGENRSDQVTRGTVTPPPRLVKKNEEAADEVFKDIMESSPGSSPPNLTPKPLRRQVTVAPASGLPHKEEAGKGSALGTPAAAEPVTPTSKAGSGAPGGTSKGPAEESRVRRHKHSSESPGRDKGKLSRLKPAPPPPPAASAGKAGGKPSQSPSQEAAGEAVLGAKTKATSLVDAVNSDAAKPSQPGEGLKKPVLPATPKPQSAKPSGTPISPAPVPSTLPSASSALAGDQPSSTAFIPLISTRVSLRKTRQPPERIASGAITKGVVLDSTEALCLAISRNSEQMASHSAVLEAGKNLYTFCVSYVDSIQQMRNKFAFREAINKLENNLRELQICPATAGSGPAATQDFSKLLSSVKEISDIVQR
Sequence (P11274 whole entry, further chain, the tested form may be a part): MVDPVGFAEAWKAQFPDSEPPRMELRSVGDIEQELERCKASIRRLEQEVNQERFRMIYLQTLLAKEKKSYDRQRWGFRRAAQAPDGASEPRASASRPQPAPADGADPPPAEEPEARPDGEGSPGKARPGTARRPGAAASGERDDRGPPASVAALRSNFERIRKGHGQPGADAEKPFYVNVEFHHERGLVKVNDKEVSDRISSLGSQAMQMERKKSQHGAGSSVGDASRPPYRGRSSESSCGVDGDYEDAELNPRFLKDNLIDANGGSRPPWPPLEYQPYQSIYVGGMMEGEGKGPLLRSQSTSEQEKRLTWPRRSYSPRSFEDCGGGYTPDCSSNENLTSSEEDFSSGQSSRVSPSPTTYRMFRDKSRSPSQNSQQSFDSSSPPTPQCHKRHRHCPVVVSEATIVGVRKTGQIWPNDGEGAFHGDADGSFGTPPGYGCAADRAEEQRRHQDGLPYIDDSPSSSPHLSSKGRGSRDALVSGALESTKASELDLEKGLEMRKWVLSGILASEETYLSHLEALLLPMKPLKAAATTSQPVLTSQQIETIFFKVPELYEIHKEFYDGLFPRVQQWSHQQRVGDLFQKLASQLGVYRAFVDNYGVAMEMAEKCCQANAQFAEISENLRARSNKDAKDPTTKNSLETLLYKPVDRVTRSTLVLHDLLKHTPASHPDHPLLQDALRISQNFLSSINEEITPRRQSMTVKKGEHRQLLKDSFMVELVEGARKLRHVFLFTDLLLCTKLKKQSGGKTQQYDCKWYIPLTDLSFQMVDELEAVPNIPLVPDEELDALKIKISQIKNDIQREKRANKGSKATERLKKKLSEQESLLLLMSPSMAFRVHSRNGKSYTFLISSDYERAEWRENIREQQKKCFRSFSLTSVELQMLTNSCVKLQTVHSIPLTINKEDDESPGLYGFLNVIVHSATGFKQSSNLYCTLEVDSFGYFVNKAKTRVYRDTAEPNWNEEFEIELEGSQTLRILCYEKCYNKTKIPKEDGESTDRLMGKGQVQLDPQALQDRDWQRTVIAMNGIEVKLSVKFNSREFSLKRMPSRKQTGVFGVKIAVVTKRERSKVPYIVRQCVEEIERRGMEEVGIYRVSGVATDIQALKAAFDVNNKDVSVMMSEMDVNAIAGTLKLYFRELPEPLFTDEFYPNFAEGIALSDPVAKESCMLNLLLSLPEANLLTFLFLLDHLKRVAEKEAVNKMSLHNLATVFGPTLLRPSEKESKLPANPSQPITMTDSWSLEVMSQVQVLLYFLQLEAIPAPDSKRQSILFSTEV
PROTOCOL_TEXT: Inhibition of BRC/ABL1 (unknown origin) after 40 mins by ADP-Glo assay

Examples with answers:
Cc1ccc(S(=O)(=O)N2CCN(c3nc(N4CCOCC4)ncc3Br)CC2)cc1; 1980 nM
Cc1ccc(S(=O)(=O)N2CCN(c3nc(Cl)ncc3Br)CC2)cc1; 58000 nM
O=S(=O)(c1cc(Cl)sc1Cl)N1CCN(c2nc(N3CCOCC3)ncc2Br)CC1; > 500000 nM
O=C(c1ccc(Cl)cc1[N+](=O)[O-])N1CCN(c2nc(Cl)ncc2Br)CC1; 2580 nM

Please look at the following compound next.
Give the measured IC50 for `O=C(c1c(F)cccc1F)N1CCN(c2nc(Cl)ncc2Br)CC1`
2650 nM

----------
Let's look at some compounds and their measured pIC50.
MEASUREMENT_TARGET: Bcr/Abl fusion protein (Homo sapiens)
PROTOCOL_TEXT: Inhibition of BRC/ABL1 (unknown origin) after 40 mins by ADP-Glo assay
Note on units: pIC50 is unitless, being -log10 of a concentration expressed in mol/L.

O=S(=O)(c1ccc(F)cc1)N1CCN(c2nc(Cl)ncc2Br)CC1; 3.91
O=[N+]([O-])c1cc(C(F)(F)F)ccc1S(=O)(=O)N1CCN(c2nc(Cl)ncc2Br)CC1; 7.65
O=C(c1cc(Cl)c(Cl)c(Cl)n1)N1CCN(c2nc(Cl)ncc2Br)CC1; 5.84
Cc1ccc(S(=O)(=O)N2CCN(c3nc(N4CCOCC4)ncc3Br)CC2)c(C)c1; 5.77

Consider the compound `O=S(=O)(c1ccc(F)cc1)N1CCN(c2nc(N3CCOCC3)ncc2Br)CC1` and give its recorded pIC50.
5.34

For the compound `O=C(c1cc(Cl)ccc1Cl)N1CCN(c2nc(Cl)ncc2Br)CC1` , report pIC50.
5.64

Determine its reported pIC50: `Cc1noc(C)c1S(=O)(=O)N1CCN(c2nc(Cl)ncc2Br)CC1`
6.25

Using known records, supply pIC50 for `O=S(=O)(c1ccc(-c2ccccc2)cc1)N1CCN(c2nc(Cl)ncc2Br)CC1`
6.19

----------
MEASUREMENT_TARGET: Bcr/Abl fusion protein (Homo sapiens)
PROTOCOL_TEXT: Inhibition of BRC/ABL1 (unknown origin) after 40 mins by ADP-Glo assay
MEASUREMENT_KIND: IC50 (nM)
Value expressed in nM; do not type the unit.

O=C(c1ccc(F)cc1)N1CCN(c2nc(Cl)ncc2Br)CC1; 19

Under Bcr/Abl fusion protein (Homo sapiens): report IC50 of `O=S(=O)(c1cc(C(F)(F)F)cc(C(F)(F)F)c1)N1CCN(c2nc(Cl)ncc2Br)CC1` .
2250

Retrieve IC50 on Bcr/Abl fusion protein (Homo sapiens); query `CS(=O)(=O)N1CCN(c2nc(Cl)ncc2Br)CC1`
255

Report its IC50 with Bcr/Abl fusion protein (Homo sapiens) as the test system: COC(=O)NC(C(=O)N1CCN(c2nc(Cl)ncc2Br)CC1)C(C)C (stereo not given)
385

----------
MEASUREMENT_TARGET: Bcr/Abl fusion protein (Homo sapiens)
PROTOCOL_TEXT: Inhibition of BRC/ABL1 (unknown origin) after 40 mins by ADP-Glo assay
// reported IC50 per item
Report as a plain number; the unit nM is understood.

Recorded IC50, per entry:
O=C(c1ccc(C(F)(F)F)cc1)N1CCN(c2nc(Cl)ncc2Br)CC1; 19
O=C(c1c(F)cccc1F)N1CCN(c2nc(N3CCOCC3)ncc2Br)CC1; 890
O=C(c1cc(I)ccc1Cl)N1CCN(c2nc(Cl)ncc2Br)CC1; 16200
O=S(=O)(c1ccc(-c2ccccc2)cc1)N1CCN(c2nc(N3CCOCC3)ncc2Br)CC1; 320

Field: next molecule
Provide IC50 value for the following molecule: `O=S(=O)(c1ccc(C(F)(F)F)cc1)N1CCN(c2nc(N3CCOCC3)ncc2Br)CC1`
19

The values you see were collected from ChEMBL document CHEMBL3853293.
